Biological target: Mas-related G-protein coupled receptor member X2 (Homo sapiens)
Sequence (Q96LB1 whole entry): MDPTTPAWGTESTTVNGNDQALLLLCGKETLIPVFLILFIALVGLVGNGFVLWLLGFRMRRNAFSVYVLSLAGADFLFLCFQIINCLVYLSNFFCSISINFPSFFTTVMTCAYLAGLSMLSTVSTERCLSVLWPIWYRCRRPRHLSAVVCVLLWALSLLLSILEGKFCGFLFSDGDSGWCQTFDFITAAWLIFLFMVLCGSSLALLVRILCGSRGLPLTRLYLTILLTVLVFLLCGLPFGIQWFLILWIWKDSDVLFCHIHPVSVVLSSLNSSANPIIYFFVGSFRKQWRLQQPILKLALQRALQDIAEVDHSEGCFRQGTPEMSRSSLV
Test: LAD2 Degranulation Assay (Protocol 1)
ENDPOINT NAME: pIC50
Hey, just a heads up that pIC50 is the negative log base 10 of the concentration in molar.

{"SMILES STRING": "C[C@@H](C(=O)Nc1nc2cc3c(cc2s1)OC(F)(F)O3)N1CCC(F)(F)[C@H](c2c[nH]c(=O)c(CO)c2)C1", "ASSAY TARGET": "Mas-related G-protein coupled receptor member X2 (Homo sapiens)", "pIC50": 6.67}
{"SMILES STRING": "C[C@@H](C(=O)Nc1nc2cc3c(cc2s1)OC(F)(F)O3)N1CCC(F)(F)[C@H](c2c[nH]c(=O)c(CO)n2)C1", "ASSAY TARGET": "Mas-related G-protein coupled receptor member X2 (Homo sapiens)", "pIC50": 6.63}
{"SMILES STRING": "C[C@@H](C(=O)Nc1nc2cc3c(cc2s1)OC(F)(F)O3)N1CCC(F)(F)[C@H](c2c[nH]c(=O)c(CN)c2)C1", "ASSAY TARGET": "Mas-related G-protein coupled receptor member X2 (Homo sapiens)", "pIC50": 6.89}
{"SMILES STRING": "CNCc1cc([C@@H]2CN([C@@H](C)C(=O)Nc3nc4cc5c(cc4s3)OC(F)(F)O5)CCC2(F)F)c[nH]c1=O", "ASSAY TARGET": "Mas-related G-protein coupled receptor member X2 (Homo sapiens)", "pIC50": 6.65}
{"SMILES STRING": "C[C@H](C(=O)Nc1nc2cc3c(cc2s1)OCO3)N1CCC(F)(F)[C@@H](c2cc[n+]([O-])cc2)C1", "ASSAY TARGET": "Mas-related G-protein coupled receptor member X2 (Homo sapiens)", "pIC50": 7.92}

With Mas-related G-protein coupled receptor member X2 (Homo sapiens) as the test system, `CNCc1cc([C@@H]2CN([C@@H](C)C(=O)Nc3nc4cc5c(cc4s3)OC(F)(F)O5)CCC2(F)F)cc[n+]1[O-]` showed pIC50 of 6.46

With Mas-related G-protein coupled receptor member X2 (Homo sapiens) as the test system, `C[C@@H](C(=O)Nc1nc2cc3c(cc2s1)CCC3)N1CCC(F)(F)[C@H](c2c[nH]c(=O)c(CO)c2)C1` showed pIC50 of 6.23

###

Target: Mas-related G-protein coupled receptor member X2 (Homo sapiens, UniProt Q96LB1)
Experiment: LAD2 Degranulation Assay (Protocol 2)
This section presents compounds with their documented pIC50 values.
Hey, just a heads up that pIC50 is the negative log base 10 of the concentration in molar.

{"SMILES STRING": "C[C@@H](C(=O)Nc1nc2cc3c(cc2s1)OC(F)(F)O3)N1CCC(F)(F)[C@H](c2c[nH]c(=O)c(CN)c2)C1", "ENDPOINT VALUE": 7.09}
{"SMILES STRING": "C[C@@H](C(=O)Nc1nc2cc3c(cc2s1)CCC3)N1CCC(F)(F)[C@H](c2ccc(=O)[nH]c2)C1", "ENDPOINT VALUE": 6.84}
{"SMILES STRING": "C[C@@H](C(=O)Nc1nc2cc3c(cc2s1)CCC3)N1CCC(F)(F)[C@H](c2c[nH]c(=O)c(CO)c2)C1", "ENDPOINT VALUE": 7.00}
{"SMILES STRING": "C[C@@H](C(=O)Nc1nc2cc3c(cc2s1)OC(F)(F)O3)N1CCC(F)(F)[C@@H](c2c[nH]c(=O)cn2)C1", "ENDPOINT VALUE": 7.28}

The value of pIC50 measured for the compound `C[C@@H](C(=O)Nc1nc2cc3c(cc2s1)OC(F)(F)O3)N1CCC(F)(F)[C@H](c2ccc(=O)[nH]c2)C1` turned out to be 7.57

The value of pIC50 measured for the compound `C[C@@H](C(=O)Nc1nc2cc3c(cc2s1)OC(F)(F)O3)N1CCC(F)(F)[C@H](c2c[nH]c(=O)c(CO)n2)C1` turned out to be 7.17

The value of pIC50 measured for the compound `C[C@@H](C(=O)Nc1nc2cc3c(cc2s1)OC(F)(F)O3)N1CCC(F)(F)[C@H](c2cc[n+]([O-])c([C@H](O)CO)c2)C1` turned out to be 8.18
